Provide the reported viability, T/C of each item.
system: 616215-338-R-J1-PDC complex spheroid growth, % test/control; assay: Anticancer human tumor 616215-338-R-J1-PDC patient-derived colon adenocarcinoma cell line growth inhibition [Asc]; settings: second compound 0.0949 µM; first compound 0.00316 µM; active compounds read low
One number for each entry, in %.

Example compounds with recorded viability, T/C:
{"columns": ["COMPOUND", "viability, T/C, %"],
 "data": [
  ["CCN1CCN(Cc2ccc(Nc3ncc(F)c(-c4cc(F)c5nc(C)n(C(C)C)c5c4)n3)nc2)CC1 + CCN1C(C(=O)NC23CCC(C(=O)O)(CC2)CC3)C(c2cccc(Cl)c2F)C2(C(=O)Nc3cc(Cl)ccc32)C12CCCCC2", 93.6],
  ["COc1c(OCCCN2CCOCC2)ccc2c3n(c(=NC(=O)c4cnc(N)nc4)nc12)CCN3 + CCN1C(C(=O)NC23CCC(C(=O)O)(CC2)CC3)C(c2cccc(Cl)c2F)C2(C(=O)Nc3cc(Cl)ccc32)C12CCCCC2", 89.3],
  ["Cn1ncnc1[C@H]1c2n[nH]c(=O)c3cc(F)cc(c23)N[C@@H]1c1ccc(F)cc1 + CCN1C(C(=O)NC23CCC(C(=O)O)(CC2)CC3)C(c2cccc(Cl)c2F)C2(C(=O)Nc3cc(Cl)ccc32)C12CCCCC2", 89],
  ["CNC(C)C(=O)NC1CN(S(=O)(=O)c2cccc(S(=O)(=O)N3CCC4CCC(C(=O)NC(c5ccccc5)c5ccccc5)N4C(=O)C(NC(=O)C(C)NC)C3)c2)CCC2CCC(C(=O)NC(c3ccccc3)c3ccccc3)N2C1=O (stereo unspecified) + CCN1C(C(=O)NC23CCC(C(=O)O)(CC2)CC3)C(c2cccc(Cl)c2F)C2(C(=O)Nc3cc(Cl)ccc32)C12CCCCC2", 90.9],
  ["NC1CCC(NC2CC2c2ccccc2)CC1 (stereo unspecified) + CCN1C(C(=O)NC23CCC(C(=O)O)(CC2)CC3)C(c2cccc(Cl)c2F)C2(C(=O)Nc3cc(Cl)ccc32)C12CCCCC2", 91.3]
]}

Next compound, please.
Ask | Data request, read-out viability, T/C, for O=C(c1ccc(F)c(F)c1Nc1ccc(I)cc1F)N1CC(O)([C@@H]2CCCCN2)C1 + CCN1C(C(=O)NC23CCC(C(=O)O)(CC2)CC3)C(c2cccc(Cl)c2F)C2(C(=O)Nc3cc(Cl)ccc32)C12CCCCC2
Reply | 93.8

---

tested on: 616215-338-R-J1-PDC complex spheroid growth, % test/control; assay: Anticancer human tumor 616215-338-R-J1-PDC cell line growth inhibition [Asc]; settings: second compound 0.0949 µM; first compound 0.1 µM; active compounds read low;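 also: spheroids exposed to agents for seven days before readout; 100% = DMSO vehicle control viability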
Please map values of viability, T/C to classes as shown: c1: < 80%; c2: ≥ 80% and < 90%; c3: ≥ 90%

Look over these answered cases.
{"columns": ["COMPOUND", "SYSTEM_NAME", "GROUP_LABEL"],
 "data": [
  ["C=CC(=O)N1CCN(c2nc(=O)n(-c3c(C)ccnc3C(C)C)c3nc(-c4c(O)cccc4F)c(F)cc23)C(C)C1 (stereo not given) + CCN1C(C(=O)NC23CCC(C(=O)O)(CC2)CC3)C(c2cccc(Cl)c2F)C2(C(=O)Nc3cc(Cl)ccc32)C12CCCCC2", "616215-338-R-J1-PDC complex spheroid growth, % test/control", "c3"],
  ["NC1CCC(NC2CC2c2ccccc2)CC1 (stereo not given) + CCN1C(C(=O)NC23CCC(C(=O)O)(CC2)CC3)C(c2cccc(Cl)c2F)C2(C(=O)Nc3cc(Cl)ccc32)C12CCCCC2", "616215-338-R-J1-PDC complex spheroid growth, % test/control", "c3"],
  ["O=C(c1cc(Cc2n[nH]c(=O)c3ccccc23)ccc1F)N1CCN(C(=O)C2CC2)CC1 + CCN1C(C(=O)NC23CCC(C(=O)O)(CC2)CC3)C(c2cccc(Cl)c2F)C2(C(=O)Nc3cc(Cl)ccc32)C12CCCCC2", "616215-338-R-J1-PDC complex spheroid growth, % test/control", "c3"],
  ["Cn1ncnc1[C@H]1c2n[nH]c(=O)c3cc(F)cc(c23)N[C@@H]1c1ccc(F)cc1 + CCN1C(C(=O)NC23CCC(C(=O)O)(CC2)CC3)C(c2cccc(Cl)c2F)C2(C(=O)Nc3cc(Cl)ccc32)C12CCCCC2", "616215-338-R-J1-PDC complex spheroid growth, % test/control", "c1"],
  ["C#Cc1c(F)ccc2cc(O)cc(-c3ncc4c(N5CC6CCC(C5)N6)nc(OCC56CCCN5CC(F)C6)nc4c3F)c12 (stereo not given) + CCN1C(C(=O)NC23CCC(C(=O)O)(CC2)CC3)C(c2cccc(Cl)c2F)C2(C(=O)Nc3cc(Cl)ccc32)C12CCCCC2", "616215-338-R-J1-PDC complex spheroid growth, % test/control", "c2"]
]}

Ask | Bin? C=C(F)C(=O)N1CCN(c2nc(OCC3CCCN3C)nc3c2CCN(c2cccc4cccc(Cl)c24)C3)CC1CC#N (stereo not given) + CCN1C(C(=O)NC23CCC(C(=O)O)(CC2)CC3)C(c2cccc(Cl)c2F)C2(C(=O)Nc3cc(Cl)ccc32)C12CCCCC2
Reply | c3

Ask | Bin? COc1c(OCCCN2CCOCC2)ccc2c3n(c(=NC(=O)c4cnc(N)nc4)nc12)CCN3 + CCN1C(C(=O)NC23CCC(C(=O)O)(CC2)CC3)C(c2cccc(Cl)c2F)C2(C(=O)Nc3cc(Cl)ccc32)C12CCCCC2
Reply | c1

Ask | Bin? CNC(C)C(=O)NC1CN(S(=O)(=O)c2cccc(S(=O)(=O)N3CCC4CCC(C(=O)NC(c5ccccc5)c5ccccc5)N4C(=O)C(NC(=O)C(C)NC)C3)c2)CCC2CCC(C(=O)NC(c3ccccc3)c3ccccc3)N2C1=O (stereo not given) + CCN1C(C(=O)NC23CCC(C(=O)O)(CC2)CC3)C(c2cccc(Cl)c2F)C2(C(=O)Nc3cc(Cl)ccc32)C12CCCCC2
Reply | c2

Ask | Bin? O=C(c1ccc(F)c(F)c1Nc1ccc(I)cc1F)N1CC(O)([C@@H]2CCCCN2)C1 + CCN1C(C(=O)NC23CCC(C(=O)O)(CC2)CC3)C(c2cccc(Cl)c2F)C2(C(=O)Nc3cc(Cl)ccc32)C12CCCCC2
Reply | c1
